Tested on: Pseudomonas aeruginosa
experimental protocol: Antimicrobial activity against Pseudomonas aeruginosa after 16 hr by serial dilution method
Type: functional
test readout: MIC (µg/mL)

compound="C=CCC(Nc1ccc(Oc2ccc(Cl)cc2)cc1)c1ccc(-c2ccccc2Cl)o1 (stereo unspecified)" test_readout=MIC value=3.12
compound="C=CCC(Nc1ccc(F)cc1)c1cccc(OCC)c1 (stereo unspecified)" test_readout=MIC value=3.12

A: C=CCC(Nc1ccc(C#N)cc1)c1ccsc1 (stereo unspecified)
B: C=CCC(NCc1ccc(F)c(F)c1)c1cc2ccccc2o1 (stereo unspecified)
C: C=CCC(Nc1ccc(Cl)cc1F)c1c(F)cccc1F (stereo unspecified)
Request: Rank order required: MIC, descending. // respond by listing labels in the order requested
Response: A, B, C
(A: 6.25 µg/mL, B: 3.12 µg/mL, C: 1.61 µg/mL)

* * *

Tested on: Pseudomonas aeruginosa
experimental protocol: Antimicrobial activity against Pseudomonas aeruginosa after 16 hr by serial dilution method
Format: functional
test readout: MIC (µg/mL)

Before answering, review these 5 worked examples.
compound="C=CCC(Nc1cccc2ncsc12)c1cn(C(C)=O)c2ccccc12 (centres undefined)" test_readout=MIC value=12.5
compound="C=CCC(Nc1cc(F)c(F)cc1F)c1ccc(F)cc1F (centres undefined)" test_readout=MIC value=1.61
compound=CO/N=C(\C(=O)N[C@@H]1C(=O)N2C(C(=O)O)=C(CSc3nc(=O)c(O)nn3C)CS[C@H]12)c1csc(N)n1 test_readout=MIC value=1.61
compound="C=CCC(Nc1cccc(F)c1)c1cc(OC)ccc1F (centres undefined)" test_readout=MIC value=1.61
compound="C=CCC(Nc1cc(C)ccc1C)C1CCCCC1 (centres undefined)" test_readout=MIC value=12.5

I: C=CCC(Nc1ccc(C(C)(C)C)cc1)c1ccc(F)cc1F (centres undefined)
II: C=CCC(Nc1ccc(N2CCOCC2)cc1)C1CCCCC1 (centres undefined)
Request: Record comparison, field MIC: mark the lower of I and II . Please reply using the label of the selected record.
Response: I

* * *

System: Escherichia coli
experimental protocol: Antimicrobial activity against Escherichia coli after 16 hr by serial dilution method
Format: functional
test readout: MIC (µg/mL)

Example compounds with recorded MIC:
compound="C=CCC(Nc1ccc(Oc2ccc(Cl)cc2)cc1)c1ccc(-c2ccccc2Cl)o1 (stereo unspecified)" target_desc="Escherichia coli" test_readout=MIC value=3.12
compound="C=CCC(NCc1ccc(F)c(F)c1)c1cc2ccccc2o1 (stereo unspecified)" target_desc="Escherichia coli" test_readout=MIC value=3.12
compound=CO/N=C(\C(=O)N[C@@H]1C(=O)N2C(C(=O)O)=C(CSc3nc(=O)c(O)nn3C)CS[C@H]12)c1csc(N)n1 target_desc="Escherichia coli" test_readout=MIC value=1.61
compound="C=CCC(Nc1ccc(C#N)cc1)c1ccsc1 (stereo unspecified)" target_desc="Escherichia coli" test_readout=MIC value=3.12
compound="C=CCC(Nc1cc(C)ccc1C)C1CCCCC1 (stereo unspecified)" target_desc="Escherichia coli" test_readout=MIC value=12.5

A: C=CCC(Nc1cc(F)c(F)cc1F)c1ccc(F)cc1F (stereo unspecified)
B: C=CCC(Nc1ccc(F)cc1)c1cccc(OCC)c1 (stereo unspecified)
C: C=CCC(Nc1cccc2ccccc12)c1ccccc1 (stereo unspecified)
D: C=CCC(Nc1cccc2ncsc12)c1cn(C(C)=O)c2ccccc12 (stereo unspecified)
Request: Ascending by MIC, please: list the compounds accordingly. List the labels, following the order given in the request.
Response: A, B, D, C

* * *

Tested on: Escherichia coli
experimental protocol: Antimicrobial activity against Escherichia coli after 16 hr by serial dilution method
Format: functional
test readout: MIC (µg/mL)

compound="C=CCOc1ccccc1C(CC=C)Nc1ccc(Oc2ccc(Cl)cc2)cc1 (configuration not stated)" value=6.25
compound="C=CCC(Nc1cccc(F)c1)c1cc(OC)ccc1F (configuration not stated)" value=1.61
compound="C=CCC(Nc1ccc(Cl)cc1F)c1c(F)cccc1F (configuration not stated)" value=1.61

I: C=CCC(Nc1ccc(F)cc1F)c1ccc(F)cc1F (configuration not stated)
II: C=CCC(Nc1ccc(N2CCOCC2)cc1)C1CCCCC1 (configuration not stated)
III: C=CCC(Nc1ccc(C(C)(C)C)cc1)c1ccc(F)cc1F (configuration not stated)
IV: C=CCC(Nc1cccc2ccccc12)c1cc2ccccc2o1 (configuration not stated)
Request: Descending sort on MIC required. // list labels; follow requested order
Response: IV, II, III, I

Attribution: ChEMBL document CHEMBL3045399
